target: Vitamin D3 receptor (Homo sapiens)
Sequence (P11473 whole entry, the tested form may be a part): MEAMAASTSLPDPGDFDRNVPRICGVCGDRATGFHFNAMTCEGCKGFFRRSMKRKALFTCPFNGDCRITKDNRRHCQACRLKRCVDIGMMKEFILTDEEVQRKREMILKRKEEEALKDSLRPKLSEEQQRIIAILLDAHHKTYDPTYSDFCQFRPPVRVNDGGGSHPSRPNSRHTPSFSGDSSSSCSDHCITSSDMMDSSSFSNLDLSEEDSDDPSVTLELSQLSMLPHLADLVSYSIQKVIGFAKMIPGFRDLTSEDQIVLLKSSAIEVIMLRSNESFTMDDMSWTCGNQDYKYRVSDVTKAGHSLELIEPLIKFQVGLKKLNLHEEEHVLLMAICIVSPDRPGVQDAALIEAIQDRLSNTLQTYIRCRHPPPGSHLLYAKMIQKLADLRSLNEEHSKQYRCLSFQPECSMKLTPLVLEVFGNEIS
protocol_description: Transrepression of VP16-tagged VDR (unknown origin) expressed in HEK293 cells harboring pCMX-GAL4-NCoR and MH100(UAS) X 4tk-LUC reporter plasmid assessed as increase in NCoR recruitment by […] reporter gene based mammalian two-hybrid assay
Type: cell-based
Entries annotated with measured IC50

{"columns": ["test_smiles", "IC50 (pM)"],
 "data": [
  ["C=C1/C(=C\\C=C2/CCC[C@]3(C)[C@@H]([C@H](C)CC#C[C@@H](O)C45CC6CC(CC(C6)C4)C5)CC[C@@H]23)C[C@@H](O)C[C@@H]1O", 90],
  ["C=C1/C(=C\\C=C2/CCC[C@]3(C)[C@@H]([C@H](C)CC#C[C@H](O)C45CC6CC(CC(C6)C4)C5)CC[C@@H]23)C[C@@H](O)C[C@@H]1O", 1750]
]}

Source: ChEMBL document CHEMBL4130637
